Target: phospholipase A2 from human leucocytes
Assay Explanation: inhibition of phospholipase A2 obtained from human leucocytes
Details: human leucocyte enzyme, 37° 1 hour, pH 7, 14C-oleic acid labelled E. coli phospholipides
Measurement Type: pIC50
// scale note: pIC50 = -log10(conc_M); give the bare number

Problem: Quick check: pIC50 of CCN(CC)CCCC(C)Nc1c2ccc(Cl)cc2nc2ccc(OC)cc12 (stereo not shown) [mepacrine] ?
Result: 2.80
